Target: Oxysterols receptor LXR-beta (Homo sapiens, UniProt P55055)
Sequence (P55055 whole entry): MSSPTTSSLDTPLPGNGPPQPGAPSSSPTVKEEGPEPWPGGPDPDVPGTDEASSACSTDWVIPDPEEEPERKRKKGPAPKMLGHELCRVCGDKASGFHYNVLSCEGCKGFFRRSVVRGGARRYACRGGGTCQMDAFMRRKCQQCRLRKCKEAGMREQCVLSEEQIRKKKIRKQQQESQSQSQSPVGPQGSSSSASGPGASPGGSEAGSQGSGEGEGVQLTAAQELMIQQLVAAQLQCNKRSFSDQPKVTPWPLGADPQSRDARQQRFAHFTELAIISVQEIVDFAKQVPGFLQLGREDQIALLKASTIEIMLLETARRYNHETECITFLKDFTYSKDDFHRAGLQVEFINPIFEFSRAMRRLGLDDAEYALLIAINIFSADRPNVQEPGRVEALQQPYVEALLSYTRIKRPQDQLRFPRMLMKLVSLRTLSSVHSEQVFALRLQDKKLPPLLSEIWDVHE
Test: Displacement of [3H]N-(4-(1,1,1,3,3,3-hexafluoro-2-hydroxypropan-2-yl)phenyl)-N-methylbenzenesulfonamide from GST-tagged LXRbeta ligand binding domain after 1 hr by scintillation proximity assay
pIC50: −log10 of the molar value.
Answer each item with its documented pIC50.

| Molecule | pIC50 |
| --- | --- |
| CC(C)CC#CC(O)(c1ccc(N(C)S(=O)(=O)c2ccccc2)cc1)C(F)(F)F (stereo not drawn) | < 4.52 |
| CN(c1ccc(C(O)(Cc2ccccc2)C(F)(F)F)cc1)S(=O)(=O)c1ccccc1 (stereo not drawn) | < 5.00 |

Let us move to another entry and its pIC50.
For the molecule CN(c1ccc(C(C)(O)C(F)(F)F)cc1)S(=O)(=O)c1ccccc1 (stereo not drawn) , what pIC50 is on record?
< 5.00

---

Answer each item with its documented remaining at 0.5 h, 1 µM.
experiment: Metabolic stability in rat liver microsomes assessed as compound remaining at 1 uM after 30 mins; assay type: ADME, Microsome; conditions: read-out: Stability
Numbers only, in %.

Answered cases to consult:
| Molecule | Observed |
| --- | --- |
| CS(=O)(=O)c1ccc(C#CC(O)(c2ccc(N(CCC(F)(F)F)S(=O)(=O)c3ccccc3)cc2)C(F)(F)F)cc1 (configuration not stated) | 42 |
| CC(C)(C)CN(c1ccc(C(O)(C#Cc2ccc(S(C)(=O)=O)cc2)C(F)(F)F)cc1)S(=O)(=O)c1ccccc1 (configuration not stated) | 36 |

Let us move to another entry and its remaining at 0.5 h, 1 µM.
For the molecule CS(=O)(=O)c1ccc(C#CC(O)(c2ccc(N(CC(F)(F)F)S(=O)(=O)c3ccccc3)cc2)C(F)(F)F)cc1 (configuration not stated) , what remaining at 0.5 h, 1 µM is on record?
85

---

test: AUC in Sprague-Dawley rat at 5 mg/kg, po; type: ADME, organism-based; parameters: dose 5 mg/kg, route oral; details: plasma
Answer each item with its documented AUC.
One number for each entry, in ng·h/mL.

| Compound | AUC / ng·h/mL |
| --- | --- |
| CC(C)CN(c1ccc(C(O)(C#Cc2ccc(S(C)(=O)=O)cc2)C(F)(F)F)cc1)S(=O)(=O)c1ccccc1 (configuration not stated) | 86 |

Let us move to another entry and its AUC.
For the compound CS(=O)(=O)c1ccc(C#CC(O)(c2ccc(N(CC3CC3)S(=O)(=O)c3ccccc3)cc2)C(F)(F)F)cc1 (configuration not stated) , what AUC is on record?
1380
